Value source: ChEMBL document CHEMBL1127570

Organism: Mus musculus
Assay: Anticonvulsant activity in mice using the maximal electroshock seizure test.
Assay type: functional
Measured metric: ED50 (mg/kg)
One number for each entry, in mg/kg.

Below are some compounds; for each one, tell me its ED50.
1. NC(=O)N1c2ccccc2C=Cc2ccccc21 [CARBAMAZEPINE]
2. Cc1nn2c(NC(=O)c3ccccc3)nnc2cc1Cc1ccccc1

Ans.
[5.5, 35]

Below are some compounds; for each one, tell me its ED50.
1. O=C1NC(=O)C(c2ccccc2)(c2ccccc2)N1 [PHENYTOIN]
2. CN1C(=O)CN=C(c2ccccc2)c2cc(Cl)ccc21 [DIAZEPAM]
3. Cc1nn2cnnc2cc1Cc1ccccc1Cl
4. Cc1nn2c(-c3ccccc3)nnc2cc1Cc1ccccc1
5. Cc1nnc(NC(N)=O)cc1Cc1ccccc1
6. CCCC(CCC)C(=O)[O-].[Na+] [VALPROATE SODIUM]
7. Cc1nn2c(C)nnc2cc1Cc1ccccc1Cl

Ans.
1. 4
2. 4
3. 6
4. 108
5. 10.2
6. 112
7. 30.5

Below are some compounds; for each one, tell me its ED50.
1. Cc1nn2c(N)nnc2cc1Cc1ccccc1
2. Cc1nn2c(N)nnc2cc1Cc1c(Cl)cccc1Cl
3. Cc1nn2c(N)nnc2cc1Cc1ccc(F)cc1
4. Cc1ccc(Cc2cc3nnc(N)n3nc2C)cc1
5. Cc1nn2c(N)nnc2cc1Cc1ccccc1Cl
6. Cc1nn2cnnc2cc1Cc1ccccc1
7. Cc1nn2cnnc2cc1Cc1c(Cl)cccc1Cl

Ans.
1. 22
2. 9.2
3. 43
4. 22.5
5. 17.4
6. 9.5
7. 6.2

Below are some compounds; for each one, tell me its ED50.
1. Cc1nn2c(C)nnc2cc1Cc1ccccc1
2. CCC1(c2ccccc2)C(=O)NC(=O)NC1=O [PHENOBARBITAL]
3. Cc1nn2cc(-c3ccccc3)nc2cc1Cc1ccccc1

Ans.
1. 26
2. 4.6
3. 105
